- Measured target: FLK-1 receptor (Mus musculus)
- Construct: expressed in transfected cells; host or cells: NIH3T3 C7#3
- Sequence (P35918 20-1345): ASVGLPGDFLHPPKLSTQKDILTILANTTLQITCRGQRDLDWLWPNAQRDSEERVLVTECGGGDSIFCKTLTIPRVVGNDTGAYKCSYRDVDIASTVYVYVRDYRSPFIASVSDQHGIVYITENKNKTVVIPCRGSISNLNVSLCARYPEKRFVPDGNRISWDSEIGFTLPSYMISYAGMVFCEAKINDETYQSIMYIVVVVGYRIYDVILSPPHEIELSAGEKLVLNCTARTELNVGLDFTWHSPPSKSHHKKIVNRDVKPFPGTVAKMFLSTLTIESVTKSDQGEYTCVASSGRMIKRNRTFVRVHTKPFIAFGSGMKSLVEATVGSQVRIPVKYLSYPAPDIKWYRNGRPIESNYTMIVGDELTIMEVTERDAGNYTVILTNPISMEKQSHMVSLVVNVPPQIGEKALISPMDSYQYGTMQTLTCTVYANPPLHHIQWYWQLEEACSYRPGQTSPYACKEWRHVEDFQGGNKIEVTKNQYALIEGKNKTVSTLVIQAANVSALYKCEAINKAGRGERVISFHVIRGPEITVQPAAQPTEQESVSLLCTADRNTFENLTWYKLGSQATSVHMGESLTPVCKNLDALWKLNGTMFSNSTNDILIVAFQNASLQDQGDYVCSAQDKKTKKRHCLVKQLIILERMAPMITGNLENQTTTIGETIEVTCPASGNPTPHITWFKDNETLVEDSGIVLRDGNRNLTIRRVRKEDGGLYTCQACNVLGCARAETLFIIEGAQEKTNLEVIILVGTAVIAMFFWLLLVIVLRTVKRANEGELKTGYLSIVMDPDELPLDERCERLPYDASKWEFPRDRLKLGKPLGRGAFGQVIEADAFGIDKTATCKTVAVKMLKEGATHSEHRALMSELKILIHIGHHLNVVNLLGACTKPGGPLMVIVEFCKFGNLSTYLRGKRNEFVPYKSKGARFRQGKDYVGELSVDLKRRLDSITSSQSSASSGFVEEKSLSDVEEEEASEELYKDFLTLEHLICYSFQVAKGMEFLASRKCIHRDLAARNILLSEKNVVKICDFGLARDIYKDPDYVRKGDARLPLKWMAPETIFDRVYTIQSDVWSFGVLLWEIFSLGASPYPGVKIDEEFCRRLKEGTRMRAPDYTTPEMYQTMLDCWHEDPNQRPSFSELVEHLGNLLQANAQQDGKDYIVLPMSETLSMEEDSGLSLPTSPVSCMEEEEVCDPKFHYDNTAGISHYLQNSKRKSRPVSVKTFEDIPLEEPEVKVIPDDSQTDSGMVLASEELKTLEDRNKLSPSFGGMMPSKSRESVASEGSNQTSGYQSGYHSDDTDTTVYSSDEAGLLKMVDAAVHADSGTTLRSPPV
- Protocol: FLK-1 ELISA (kinase activity of the FLK-1 receptor in FLK-1/NIH3T3 cells, VEGF stimulated)
- Format: cell-based
- Procedure: An enzyme linked immunosorbent assay (ELISA) was conducted to measure the catalytic activity of the FLK-1 receptor and more specifically, the inhibition or activation of indolinone compounds on the catalytic activity of the FLK-1 receptor. Specifically, the following assay was conducted to measure catalytic activity of the FLK-1 receptor in FLK-1/NIH3T3 cells. […]
Measured attribute: Fik Kinase %Inhibition (%)
Number only, in %; omit the unit.

O=C1Nc2ccc(CCCl)cc2C1=Cc1ccccc1O = -2.9
O=C1Nc2ccc(CCCl)cc2C1=Cc1ccc([N+](=O)[O-])o1 = 15.6
COC(=O)c1[nH]c(C)c(C=C2C(=O)Nc3ccc(CCCl)cc32)c1C(=O)OC = 11.4
CC(C)(C)c1cc(C=C2C(=O)Nc3ccc(I)cc32)cc(C(C)(C)C)c1OCc1ccccc1 = -1.1
O=C1Nc2ccc(S(=O)(=O)N3CCOCC3)cc2C1=Cc1ccccc1 = 11.9
O=C1Nc2ccc(S(=O)(=O)N3CCOCC3)cc2C1=Cc1ncc[nH]1 = 5.0

# ---- query compound ----
[Q] # input compound: COc1c([N+](=O)[O-])cc(C=C2C(=O)Nc3ccc(I)cc32)cc1C(C)(C)C ; wanted: its Fik Kinase %Inhibition
[A] 3.1

# credit: patent EP1247803A2
